Parameter folding enthalpy: see the listing below.
assay: folding enthalpy; higher = less favourable; fluorescence melt of hairpins on a sequencing array, two-state fit; conditions: sodium 0.088 M

[
  {
    "entry sequence": "GCAGACGGAAACATCTGC (((((.(....).)))))",
    "result units": "kcal/mol",
    "folding enthalpy": -29.9
  },
  {
    "entry sequence": "GACACCCGAAAGGGAGTC (((.(((....))).)))",
    "result units": "kcal/mol",
    "folding enthalpy": -29.6
  },
  {
    "entry sequence": "GAATTCCGAAAGGATTTC (((.(((....))).)))",
    "result units": "kcal/mol",
    "folding enthalpy": -29.7
  },
  {
    "entry sequence": "GTCAGCGAAAGCTAGAC ((((((....))).)))",
    "result units": "kcal/mol",
    "folding enthalpy": -22.8
  },
  {
    "entry sequence": "GACGTGCCGAAAGGCGTC (((..(((....))))))",
    "result units": "kcal/mol",
    "folding enthalpy": -13.3
  },
  {
    "entry sequence": "GCAAGCCGAAAGGCGTGC (((.(((....))).)))",
    "result units": "kcal/mol",
    "folding enthalpy": -18.9
  },
  {
    "entry sequence": "GCAGCACGAAAGTGTGC (((.(((....))))))",
    "result units": "kcal/mol",
    "folding enthalpy": -18.6
  },
  {
    "entry sequence": "GTTGAGGGAAACTTCAAC (((((.(....).)))))",
    "result units": "kcal/mol",
    "folding enthalpy": -33.6
  }
]

---

Parameter Tm: see the listing below.
test: melting temperature; fluorescence melt of hairpins on a sequencing array, two-state fit, raised by 9.35 °C to match UV melts; conditions: sodium 0.088 M

[
  {
    "entry sequence": "GATCTTCGAAAGATC ((((((...))))))",
    "Tm, °C": 39.9
  },
  {
    "entry sequence": "CGCGGAAGAGTCCGCG ((((((....))))))",
    "Tm, °C": 62.6
  },
  {
    "entry sequence": "GCACCGACGAAAGTCTGC (((..(((....))))))",
    "Tm, °C": 35.3
  },
  {
    "entry sequence": "GATCTTCCACAAGATC ((((((....))))))",
    "Tm, °C": 41.5
  },
  {
    "entry sequence": "GCAATGCGAAAGCCTTGC ((((.((....)).))))",
    "Tm, °C": 53.9
  },
  {
    "entry sequence": "GCCGCCACGAAAGTGGGC (((..(((....))))))",
    "Tm, °C": 54.6
  }
]

---

experiment: folding enthalpy; higher = less favourable; fluorescence melt of hairpins on a sequencing array, two-state fit; conditions: sodium 0.088 M
Class MET: folding enthalpy at least -30 kcal/mol. Class NOT MET: folding enthalpy below -30 kcal/mol.

[
  {
    "entry sequence": "GAGTCAGAAATGACTC ((((((....))))))",
    "group label": "MET"
  },
  {
    "entry sequence": "GGACATACGAAAGTATCC (((..(((....))))))",
    "group label": "MET"
  },
  {
    "entry sequence": "GAGGCCGAAAGGCGGCTC ((((((....)))..)))",
    "group label": "MET"
  },
  {
    "entry sequence": "GCGTATGCGAAAGCACGC (((..(((....))))))",
    "group label": "MET"
  },
  {
    "entry sequence": "CGCTTCGGAAACGACGCG (((.(((....))).)))",
    "group label": "NOT MET"
  },
  {
    "entry sequence": "GATCTGGACACAGATC ((((((....))))))",
    "group label": "NOT MET"
  },
  {
    "entry sequence": "GCTCCGCGAAAGCCGGGC ((.(.((....)).).))",
    "group label": "MET"
  },
  {
    "entry sequence": "GATCGGCTCCCGATC ((((((...))))))",
    "group label": "NOT MET"
  },
  {
    "entry sequence": "GCAATCGGAAACGATTAC (.(((((....))))).)",
    "group label": "MET"
  },
  {
    "entry sequence": "GGGGTGGCGAAAGCCCCC (((..(((....))))))",
    "group label": "MET"
  },
  {
    "entry sequence": "GATCCACAGTGGATC ((((((...))))))",
    "group label": "NOT MET"
  },
  {
    "entry sequence": "GATCCAGAAGTGGATC ((((((....))))))",
    "group label": "NOT MET"
  },
  {
    "entry sequence": "GCGGTCGAAAGACTACGC ((((((....)))..)))",
    "group label": "MET"
  },
  {
    "entry sequence": "GTCTTCGAAAGAATGGAC ((((((....)))..)))",
    "group label": "MET"
  },
  {
    "entry sequence": "GAGTACGAAAGTAGTCTC ((((((....)))..)))",
    "group label": "MET"
  },
  {
    "entry sequence": "GATCCGGCTCCGGATC ((((((....))))))",
    "group label": "NOT MET"
  },
  {
    "entry sequence": "GCAGTTTCGAAAGAATGC (((..(((....))))))",
    "group label": "MET"
  },
  {
    "entry sequence": "CGCGAACGGAAACGTGCG (((..(((....))))))",
    "group label": "NOT MET"
  },
  {
    "entry sequence": "GGTGACCCGAAAGGGACC (((..(((....))))))",
    "group label": "MET"
  },
  {
    "entry sequence": "GGAGTCGAAAGACCGTCC ((((((....)))..)))",
    "group label": "MET"
  },
  {
    "entry sequence": "GGAGACGAAAGTCTATCC ((((((....)))..)))",
    "group label": "MET"
  },
  {
    "entry sequence": "GATCTGTCGGCAGATC ((((((....))))))",
    "group label": "NOT MET"
  },
  {
    "entry sequence": "AGTCAGAAATGACT (((((....)))))",
    "group label": "MET"
  },
  {
    "entry sequence": "GGCGCCGAAAGGCCGGCC ((((((....)))..)))",
    "group label": "MET"
  },
  {
    "entry sequence": "GCGACGCGAAAGCATAGC ((.(.((....)).).))",
    "group label": "MET"
  },
  {
    "entry sequence": "GCGAGTAATCGC ((((....))))",
    "group label": "MET"
  },
  {
    "entry sequence": "GTGGATGGAAACGTCCAC (((((.(....).)))))",
    "group label": "NOT MET"
  },
  {
    "entry sequence": "GATCTAGTTTTAGATC ((((((....))))))",
    "group label": "NOT MET"
  },
  {
    "entry sequence": "GTGGTGTCGAAAGACCAC (((..(((....))))))",
    "group label": "MET"
  },
  {
    "entry sequence": "GCCTACCGAAAGGTTGGC (((.(((....))).)))",
    "group label": "NOT MET"
  },
  {
    "entry sequence": "GACAATCCGAAAGGAGTC (((..(((....))))))",
    "group label": "MET"
  },
  {
    "entry sequence": "GATCGTACTCACGATC ((((((....))))))",
    "group label": "NOT MET"
  },
  {
    "entry sequence": "GCAACCACGAAAGTGTGC (((..(((....))))))",
    "group label": "MET"
  },
  {
    "entry sequence": "GCATGAACGAAAGTTTGC (((..(((....))))))",
    "group label": "MET"
  },
  {
    "entry sequence": "GGCCTCGAAAGAGCGCC ((((((....))).)))",
    "group label": "MET"
  },
  {
    "entry sequence": "GATCACTGGGTGATC ((((((...))))))",
    "group label": "NOT MET"
  },
  {
    "entry sequence": "GTTCTGAAAAGAAC (((((....)))))",
    "group label": "MET"
  },
  {
    "entry sequence": "GCGTCTCAACGC ((((....))))",
    "group label": "MET"
  },
  {
    "entry sequence": "GGCACTGCGAAAGCAGCC (((..(((....))))))",
    "group label": "MET"
  },
  {
    "entry sequence": "GAATCCGAAAGGATGTTC ((((((....)))..)))",
    "group label": "MET"
  },
  {
    "entry sequence": "GTGTACGAAAGTAAACAC ((((((....)))..)))",
    "group label": "MET"
  },
  {
    "entry sequence": "GTAAACCGAAAGGTTAC (((.(((....))))))",
    "group label": "MET"
  },
  {
    "entry sequence": "GAAAATCCGAAAGGATTC (((..(((....))))))",
    "group label": "MET"
  },
  {
    "entry sequence": "GATCACGCTCGTGATC ((((((....))))))",
    "group label": "NOT MET"
  },
  {
    "entry sequence": "GCACTACGAAAGTATGC (((.(((....))))))",
    "group label": "MET"
  },
  {
    "entry sequence": "GCGACAGGAAACTGCCAC (.(.(((....))).).)",
    "group label": "MET"
  },
  {
    "entry sequence": "CGTATACGGAAACGTACG (((..(((....))))))",
    "group label": "MET"
  },
  {
    "entry sequence": "CGAACGGAAACGTGATCG ((((((....)))..)))",
    "group label": "MET"
  }
]
